tested on: NIH3T3 cells stably expressing the mCherry-GFP-LC3 reporter; experiment: Macroautophagy activity, mCherry-GFP-LC3 reporter; assay type: cell-based, mouse; conditions: c0 = 10 (axis unlabelled)
Overview of reported APG (Fig. S3e) across a group of compounds:

{"columns": ["compound", "APG (Fig. S3e)"],
 "data": [
  ["CO[C@H]1C[C@@H]2CC[C@@H](C)[C@@](O)(O2)C(=O)C(=O)N2CCCC[C@H]2C(=O)O[C@H]([C@H](C)C[C@@H]2CC[C@@H](O)[C@H](OC)C2)CC(=O)[C@H](C)/C=C(\\C)[C@@H](O)[C@@H](OC)C(=O)[C@H](C)C[C@H](C)/C=C/C=C/C=C/1C [rapamycin, reference compound]", 3.3128],
  ["Cc1ccc(C2=Nc3ccc(Cl)cc3OC2)cc1 [AR7, reference compound]", 0.7738],
  ["CC(=O)Nc1ccc(C2=Nc3ccc(Cl)cc3OC2)cc1", 2.43],
  ["Clc1ccc2c(c1)OCC(c1ccc(-c3ccccc3)cc1)=N2", 2.801]
]}
